This collection of values is drawn from the supplement of paper PMC11451515.

system: SEM cells; assay: cell viability relative to DMSO control; higher = less cytotoxic; details: RPMI 5 mM glucose + 10% dialyzed FBS; 48 h; 0.0632 µM
observation_type: cell viability (%)
Numbers only, in %.

Some solved entries appear below for comparison.
input_smiles | readout_units | cell viability
CN(C)c1ccc(-c2nc3c(N4CCN(CC(=O)Nc5nccs5)CC4)c(Cl)cnc3[nH]2)cc1 | % | 107
C[C@@H]1CC[C@@]2(CC[C@]3(C)\C(=C/C[C@@H]4[C@@]5(C)C[C@@H](O)[C@H](O)[C@@](C)(CO)[C@@H]5CC[C@@]34C)[C@@H]2[C@H]1C)C(O)=O | % | 103
COC(=O)[C@H](Cc1ccccc1)NC(=O)[C@@H](N)CC(=O)O | % | 123
OC(=O)CNC(=O)\C1=C(/O)C2=CC=CC=C2N(CC3=CC=CC=C3)C1=O | % | 89.3

Would you mind giving cell viability for every compound in the list below?
1. COc1cc(C[C@@H](CO)[C@H](CO)Cc2ccc(O)c(OC)c2)ccc1O
2. O=C(CCCN1CCC(O)(c2ccc(Cl)cc2)CC1)c1ccc(F)cc1
3. CC(C)C[C@H](CC(=O)O)C(=O)N[C@@H](Cc1c[nH]c2ccccc12)C(=O)N[C@@H](C)c1ccccc1
4. COc1ccc(/C=C/C(=O)Nc2ccccc2C(=O)O)cc1OC

Result string:
1. 113
2. 123
3. 89.6
4. 35.1
